Test system: CAKI-1 renal
method-description: NCI-60 one-dose screen, 48 h (100 = growth as untreated, 0 = no growth, -100 = all killed)
test-parameters: 10 µM unless noted
This is part of a sample that, as a whole, favours compounds with a hit. Of some 83,000 tested, about 20% had one in any assay. Calls of active or inactive are those of the source. The calls were made as follows: active = growth percent below 10; inactive = the rest.
Recorded growth values for a group of compounds are listed next.

compound	growth
N#Cc1nc(-c2ccc(Cl)cc2)oc1S(=O)(=O)N1CCN(c2ccc(F)cc2)CC1	107% (inactive)
COC(=O)c1cc(N=C2NC(=O)/C(=C/C=C/c3ccccc3)S2)ccc1O	29% (inactive)
O=C(NCCCl)Nc1ncccc1OCc1ccccc1	97.9% (inactive)
CCCCCCCCCCCCCCCCOCCCOP(=O)(O)C1CCCN(O)C1=O (stereo not given)	16.6% (inactive)
Nc1nc(N)c(-c2ccc(Cl)c(Cl)c2)c(CBr)n1	82.3% (inactive)
COc1ccc2c(c1)c(-c1nc(-c3c[nH]c4ccncc34)cs1)cn2C	-86.3% (active)
CCC1=C[C@@H]2C[C@]3(C(=O)OC)c4[nH]c5ccccc5c4CC[N@+](CC(=O)Nc4cc5c(cc4OC)N(C)[C@H]4[C@@](O)(C(=O)OC)[C@H](OC(C)=O)[C@]6(CC)C=CCN7CC[C@]54[C@@H]76)(C2)[C@H]13	93.2% (inactive)
CC1(C)CC(=O)C2=C(C1)N(c1ccc(OC(F)(F)F)cc1)C(N)=C(C#N)C2c1ccc(Br)cc1F (stereo not given)	50.3% (inactive)
CC(C)COc1nc2c(c(=O)n(C)c(=O)n2C)n1C	107% (inactive)
CS(=O)(=O)Nc1cncc(-c2ccc3ncnc(Nc4cncc(Cl)c4)c3c2)c1	94.9% (inactive)

* * *

Test system: OVCAR-8 ovarian
method-description: NCI-60 one-dose screen, 48 h
test-parameters: 10 µM unless noted
About 83,000 compounds went through this panel and 20% of them were active in at least one assay; those are over-represented in the sample as a whole. Calls of active or inactive are those of the source. Rule for the calls: active = growth percent below 10; inactive = the rest.
Outcomes: active, inactive

compound	class-name
N#Cc1ccc(O)c(C2=NCC(c3cccc(Oc4ccccc4)c3)O2)c1 (centres undefined)	inactive
CCCNc1nc2ccccc2c2c1S(=O)(=O)c1ccc(Cl)cc1C2=O	active
COC1=CC(c2ccc[nH]2)=N/C1=C\c1[nH]c(C)c(C)c1CCC(=O)OCc1ccccc1	active
COc1ccc(/C=C/C(=O)c2ccc(Nc3ccnc4cc(Cl)ccc34)cc2)cc1	inactive
O=C(Nc1ccccc1)Nc1ncnc2c1ncn2-c1ccc(Cl)cc1	inactive
CC(=O)Oc1ccc(N2C(=O)C(Cl)=C(Nc3cccc(C(F)(F)F)c3)C2=O)cc1	inactive
Oc1c(I)cc(I)cc1CNCCN(Cc1ccccn1)Cc1ccccn1	active
CCCCCOC(=O)c1c(C)[nH]c(/C=C2\N=C(c3ccc[nH]3)C=C2OC)c1C	active
COCCOc1cc2ncnc(N3CCN(c4ncc(S(=O)(=O)N5CCCCC5)cn4)CC3)c2cc1OCCOC	inactive
CC(=O)N1N=C(c2ccc(Nc3nc(Nc4ccccc4)nc(Nc4ccccc4)n3)cc2)CC1c1ccccc1 (centres undefined)	inactive
NC(=O)CSc1oc(-c2ccccc2)nc1S(=O)(=O)c1ccc(Br)cc1	inactive
NC(=O)C(=O)c1ccccc1NC=O	inactive
O=C1Nc2ccccc2/C1=C/c1nc2ccccc2c(=O)[nH]1	inactive
COc1ccc(C2CC(c3ccc(Nc4nc(Nc5ccccc5)nc(Nc5ccccc5)n4)cc3)=NN2C(C)=O)cc1 (centres undefined)	inactive
Nc1c(C(=O)Nc2ccccc2F)sc2nc3c(cc12)CCCC3	inactive
N#C/C(=C\c1c(-c2ccccc2)[nH]c2ccccc12)C(N)=O	inactive
O=C1c2ccccc2-c2c1c1c(=O)[nH]c3ccccc3c1n2Cc1ccccc1	inactive
COc1ccc(OC)c(Nc2nnc(-c3ccc(O)c(OC)c3)o2)c1	inactive
CCN1CCN(C(=O)[C@]23CCC(C)(C)C[C@@H]2C2=CC[C@@H]4[C@@]5(C)CCC(=O)C(C)(C)[C@@H]5CC[C@@]4(C)[C@]2(C)CC3)CC1	inactive
O=C1/C(=C/c2ccc([N+](=O)[O-])cc2)COc2ccc(O)cc21	inactive
Cc1ccc(C(=O)c2ccc(CC(=O)N/N=C/c3ccccc3O)n2C)cc1	inactive
CCOC(=O)c1ccc2c(c1)nc(-c1ccccc1)n2C1CCCCC1	inactive
CCOC(=O)c1c(NC(=O)c2ccc(Cl)cc2)sc2c(CN(C)C)c(O)ccc12	inactive
COc1ccc2[nH]c(C(=O)N3CCN(C(=O)OCc4ccc5c(Cl)cc(Cl)c(O)c5n4)CC3)cc2c1	active
CCc1ncnc2c1ccn2C(C)c1ccc(OC)c(F)c1 (centres undefined)	inactive
O=C(/C=C/c1ccccc1)Nc1ncc(Cc2ccccc2Cl)s1	inactive
O=C(N(c1ccccc1)c1ccccc1)n1cc(I)c2nc(Cl)nc(Cl)c21	inactive
CC(=O)N1N=C(c2ccc(Nc3nc(Nc4ccccc4)nc(Nc4ccccc4)n3)cc2)CC1c1cccc([N+](=O)[O-])c1 (centres undefined)	inactive
c1ccc([P+](c2ccccc2)(c2ccccc2)c2ccc3c4ccc([P+](c5ccccc5)(c5ccccc5)c5ccccc5)c5cccc(c6cccc2c63)c54)cc1	inactive
CN(C)CCNC(=O)c1ccc(-c2nc3ccc4[nH]ncc4c3c3c2C2CCC3C2)cc1 (centres undefined)	inactive
O=C(Nn1c2c(sc1=NC1CC1)C(=O)c1ccccc1C2=O)c1cc2ccc1CCc1ccc(cc1)CC2	active
O=C1C(Cl)=C(Nc2ccc(S(=O)(=O)N3CCOCC3)cc2)C(=O)c2ccccc21	inactive
O=C1Nc2ccc(C(=O)O)cc2/C1=N/c1nnc(Sc2ccccc2)s1	inactive
CC(C)(Sc1cc(C(C)(C)C)c(OC(=O)CCCC(=O)O)c(C(C)(C)C)c1)Sc1cc(C(C)(C)C)c(OC(=O)CCCC(=O)O)c(C(C)(C)C)c1	inactive
COc1cc2cc(NCc3cccc(Cl)c3)nc(C)c2cc1OC	inactive
CCOC(=O)C1=C(c2ccccc2)N=C2SC=C(c3ccc(Cl)cc3)N2C1c1ccc(Cl)cc1 (centres undefined)	inactive
CCCCCCCCCc1ccc(OCCOCCOCCOCCOCCOCCOCCOCCOCCO)cc1	active
S=c1sc2c(Cl)nc(-c3cccnc3)nc2n1-c1ccccc1	inactive
CC1CCc2c(C(=O)Nc3ncc(Cc4cccc([N+](=O)[O-])c4)s3)csc2C1 (centres undefined)	inactive
